study-target: Adrenergic receptor alpha-1 (Rattus norvegicus, UniProt P15823+P23944+P43140)
method-notes: Displacement of [3H]-prazosin from rat brain alpha1 adrenergic receptor after 50 mins

compound-structure | Ki
COc1ccc(CNC(=O)CCCCCN2CCN(c3cccnc3-c3ccncc3)CC2)cc1 | > 1000 nM
COc1ccccc1-c1cccc(N2CCN(CCOCCC(=O)NCc3ccc(F)nc3)CC2)c1 | > 1000 nM
COc1ccc(CNC(=O)CCOCCN2CCN(c3cccc(-c4ccccc4OC)c3)CC2)cc1 | > 1000 nM
